tested on: S. aureus (ATCC No. 6538); assay: MIC, broth microdilution; type: cell-based, Staphylococcus aureus; conditions: Gemini-surfactant series S; 18 hours, 37° C.
parameter measured: MIC SA (ppm)
Provide only the numeric value, understood in ppm.

Read the entry CCCCCCCCCCCC[N+](C)(C)Cc1ccc(C(=O)NCCNC(=O)c2ccc(C[N+](C)(C)CCCCCCCCCCCC)cc2)cc1.[Cl-].[Cl-] [S-1g] and write its reported MIC SA.
1

Read the entry CCCCCCCCCCCC[N+](C)(C)Cc1ccc(C(=O)NCCCCCCNC(=O)c2ccc(C[N+](C)(C)CCCCCCCCCCCC)cc2)cc1.[Cl-].[Cl-] and write its reported MIC SA.
4

Read the entry CCCCCCCC[N+](C)(C)Cc1ccc(C(=O)NCc2cccc(CNC(=O)c3ccc(C[N+](C)(C)CCCCCCCC)cc3)c2)cc1.[Cl-].[Cl-] and write its reported MIC SA.
2

----------
Tested on: S. aureus (ATCC No. 6538)
Test: MIC, broth microdilution
Format: cell-based, Staphylococcus aureus
Conditions: Gemini-surfactant series S; 18 hours, 37° C.
Method: Bacterial and fungal samples were inoculated according to ATCC's requirement. […] Minimum inhibitory concentration (MIC) of the polymers was determined using the broth microdilution method. […] The inoculated overnight microbe solution was first diluted to an optical density (O.D.) reading of 0.07 using a microplate reader (TECAN, Switzerland). […] MIC was taken as the lowest concentration at which there was no observable microbe growth when measured by the microplate reader.
MIC SA: recorded values
Provide only the numeric value, understood in ppm.

CCCCCCCC[N+](C)(C)Cc1ccc(C(=O)NCCCCCCNC(=O)c2ccc(C[N+](C)(C)CCCCCCCC)cc2)cc1.[Cl-].[Cl-] | 4

Note: attention shifts to another entry.
Read the entry CCCCCCCCCC[N+](C)(C)Cc1ccc(C(=O)OCCCCCCOC(=O)c2ccc(C[N+](C)(C)CCCCCCCCCC)cc2)cc1.[Cl-].[Cl-] and write its reported MIC SA.
1

----------
system: E. coli (ATCC No. 25922); experiment: MIC, broth microdilution; type: cell-based, Escherichia coli; conditions: Gemini-surfactant series S; 18 hours, 37° C.
parameter measured: MIC EC

A selection of reference data follows.
CCCCCCCCCC[N+](C)(C)Cc1ccc(C(=O)OCCCCCCOC(=O)c2ccc(C[N+](C)(C)CCCCCCCCCC)cc2)cc1.[Cl-].[Cl-] [S-9g] | 2 ppm
CCCCCCCC[N+](C)(C)Cc1ccc(C(=O)NCCOCCOCCNC(=O)c2ccc(C[N+](C)(C)CCCCCCCC)cc2)cc1.[Cl-].[Cl-] [S-5f] | 250 ppm
CCCCCCCCCCCC[N+](C)(C)Cc1ccc(C(=O)NCCNC(=O)c2ccc(C[N+](C)(C)CCCCCCCCCCCC)cc2)cc1.[Cl-].[Cl-] [S-1g] | 2 ppm
C[N+](C)(Cc1ccc(C(=O)NCCOCCOCCNC(=O)c2ccc(C[N+](C)(C)C3CCCCC3)cc2)cc1)C1CCCCC1.[Cl-].[Cl-] [S-5c] | >500 ppm
CCCCCCCC[N+](C)(C)Cc1ccc(C(=O)NCCCOCCOCCOCCCNC(=O)c2ccc(C[N+](C)(C)CCCCCCCC)cc2)cc1.[Cl-].[Cl-] [S-6f] | 125 ppm
CCCC[N+](C)(C)Cc1ccc(C(=O)NCCOCCOCCNC(=O)c2ccc(C[N+](C)(C)CCCC)cc2)cc1.[Cl-].[Cl-] [S-5e] | >500 ppm

Note: attention shifts to another entry.
Read the entry C=CC[N+](C)(C)Cc1ccc(C(=O)NCCOCCOCCNC(=O)c2ccc(C[N+](C)(C)CC=C)cc2)cc1.[Cl-].[Cl-] [S-5a] and write its reported MIC EC.
>500 ppm

----------
tested on: S. aureus (ATCC No. 6538); experiment: MIC, broth microdilution; assay type: cell-based, Staphylococcus aureus; settings: Gemini-surfactant series S; 18 hours, 37° C.
MIC SA: recorded values
Provide only the numeric value, understood in ppm.

CCCCCCCCCCCC[N+](C)(C)Cc1ccc(C(=O)NCCNC(=O)c2ccc(C[N+](C)(C)CCCCCCCCCCCC)cc2)cc1.[Cl-].[Cl-] [S-1h] | 16
CCCCCCCCCCCC[N+](C)(C)Cc1ccc(C(=O)NCCOCCOCCNC(=O)c2ccc(C[N+](C)(C)CCCCCCCCCCCC)cc2)cc1.[Cl-].[Cl-] [S-5h] | 2

Read the entry CCCCCCCCCC[N+](C)(C)Cc1ccc(C(=O)NCCOCCOCCNC(=O)c2ccc(C[N+](C)(C)CCCCCCCCCC)cc2)cc1.[Cl-].[Cl-] [S-5g] and write its reported MIC SA.
2

Read the entry CCCCCCCCCC[N+](C)(C)Cc1ccc(C(=O)NCc2cccc(CNC(=O)c3ccc(C[N+](C)(C)CCCCCCCCCC)cc3)c2)cc1.[Cl-].[Cl-] [S-4g] and write its reported MIC SA.
1

----------
system: E. coli (ATCC No. 25922); experiment: MIC, broth microdilution; assay type: cell-based, Escherichia coli; settings: Gemini-surfactant series S; 18 hours, 37° C.
parameter measured: MIC EC
Please format your answer as a value with the unit trailing.

CCCCCCCCCC[N+](C)(C)Cc1ccc(C(=O)NCCCCCCOC(=O)c2ccc(C[N+](C)(C)CCCCCCCCCC)cc2)cc1.[Cl-].[Cl-] [S-13g] | 1 ppm

Read the entry CCCCCCCCCCCC[N+](C)(C)Cc1ccc(C(=O)NCCNC(=O)c2ccc(C[N+](C)(C)CCCCCCCCCCCC)cc2)cc1.[Cl-].[Cl-] [S-1h] and write its reported MIC EC.
8 ppm

Read the entry CCCCCCCC[N+](C)(C)Cc1ccc(C(=O)NCCCCCCNC(=O)c2ccc(C[N+](C)(C)CCCCCCCC)cc2)cc1.[Cl-].[Cl-] and write its reported MIC EC.
16 ppm

Read the entry CCCCCCCCCC[N+](C)(C)Cc1ccc(C(=O)NCc2cccc(CNC(=O)c3ccc(C[N+](C)(C)CCCCCCCCCC)cc3)c2)cc1.[Cl-].[Cl-] and write its reported MIC EC.
1 ppm

Read the entry CCCCCCCCCCCC[N+](C)(C)Cc1ccc(C(=O)NCCCCCCNC(=O)c2ccc(C[N+](C)(C)CCCCCCCCCCCC)cc2)cc1.[Cl-].[Cl-] and write its reported MIC EC.
16 ppm

Read the entry CCCCCCCCCC[N+](C)(C)Cc1ccc(C(=O)OCCCOC(=O)c2ccc(C[N+](C)(C)CCCCCCCCCC)cc2)cc1.[Cl-].[Cl-] and write its reported MIC EC.
1 ppm

----------
Hemolysis, HC50: recorded values
tested on: rat red blood cells (rRBCs); assay: Hemolysis assay; assay type: cell-based; details: Gemini-surfactant series S; 1 hour, 37° C.

C[N+](C)(Cc1ccc(C(=O)NCCOCCOCCNC(=O)c2ccc(C[N+](C)(C)C3CCCCC3)cc2)cc1)C1CCCCC1.[Cl-].[Cl-] | >2000 ppm
CCCCCCCCCCCC[N+](C)(C)Cc1ccc(C(=O)NCCCCCCNC(=O)c2ccc(C[N+](C)(C)CCCCCCCCCCCC)cc2)cc1.[Cl-].[Cl-] | 125-250 ppm

Read the entry CCCCCCCC[N+](C)(C)Cc1ccc(C(=O)NCc2cccc(CNC(=O)c3ccc(C[N+](C)(C)CCCCCCCC)cc3)c2)cc1.[Cl-].[Cl-] and write its reported Hemolysis, HC50.
250-500 ppm

Read the entry CCCCCCCCCCCC[N+](C)(C)Cc1ccc(C(=O)NCCCOCCOCCOCCCNC(=O)c2ccc(C[N+](C)(C)CCCCCCCCCCCC)cc2)cc1.[Cl-].[Cl-] and write its reported Hemolysis, HC50.
31-63 ppm

Read the entry CCCCCCCCCC[N+](C)(C)Cc1ccc(C(=O)OCCCOC(=O)c2ccc(C[N+](C)(C)CCCCCCCCCC)cc2)cc1.[Cl-].[Cl-] and write its reported Hemolysis, HC50.
63-125 ppm

Read the entry CCCCCCCC[N+](C)(C)Cc1ccc(C(=O)NCCCCCCNC(=O)c2ccc(C[N+](C)(C)CCCCCCCC)cc2)cc1.[Cl-].[Cl-] and write its reported Hemolysis, HC50.
500-1000 ppm

Read the entry C=CC[N+](C)(C)Cc1ccc(C(=O)NCCOCCOCCNC(=O)c2ccc(C[N+](C)(C)CC=C)cc2)cc1.[Cl-].[Cl-] and write its reported Hemolysis, HC50.
>2000 ppm

----------
system: S. aureus (ATCC No. 6538); experiment: MIC, broth microdilution; type: cell-based, Staphylococcus aureus; settings: Gemini-surfactant series S; 18 hours, 37° C.
parameter measured: MIC SA (ppm)
Provide only the numeric value, understood in ppm.

CCCCCCCCCCCC[N+](C)(C)Cc1ccc(C(=O)NCCCOCCOCCOCCCNC(=O)c2ccc(C[N+](C)(C)CCCCCCCCCCCC)cc2)cc1.[Cl-].[Cl-] | 1
CCCCCCCCCC[N+](C)(C)Cc1ccc(C(=O)NCCCCCCNC(=O)c2ccc(C[N+](C)(C)CCCCCCCCCC)cc2)cc1.[Cl-].[Cl-] | 1
CCCCCCCCCC[N+](C)(C)Cc1ccc(C(=O)NCCCCCCOC(=O)c2ccc(C[N+](C)(C)CCCCCCCCCC)cc2)cc1.[Cl-].[Cl-] [S-13g] | 1
CCCCCCCCCC[N+](C)(C)Cc1ccc(C(=O)OCCCOC(=O)c2ccc(C[N+](C)(C)CCCCCCCCCC)cc2)cc1.[Cl-].[Cl-] | 1
CCCCCCCC[N+](C)(C)Cc1ccc(C(=O)NCCCOCCOCCOCCCNC(=O)c2ccc(C[N+](C)(C)CCCCCCCC)cc2)cc1.[Cl-].[Cl-] | 16

Note: attention shifts to another entry.
Fill in: MIC SA on S. aureus (ATCC No. 6538), entry CCCCCCCC[N+](C)(C)Cc1ccc(C(=O)NCCNC(=O)c2ccc(C[N+](C)(C)CCCCCCCC)cc2)cc1.[Cl-].[Cl-]
31
